Hello, the source for this data is ChEMBL document CHEMBL1201862, in case you need it.

Test system: MDA-MB-231
Test: NCI tumour cell line growth inhibition, 48 h
Structures can show the parent of a compound that is named as a salt. Activity calls are given as the source filed them. No stated cut-off is given here; in the data, active = GI50 up to about 1.1 µM and inactive = higher.
I would appreciate it if you answered using one of these outcomes: 1.0 for active, 0.0 for inactive

Answered cases to consult:
Molecule: Cc1c(C)c(C)c(CSC(=N)N)c(C)c1C
Assigned Class: 0.0

Molecule: CCCCCCCCCCCCCCCCOP(=O)(O)OP(=O)(O)OCC1OC(n2ccc(N)nc2=O)C(O)C1O (centres undefined)
Assigned Class: 0.0

Molecule: CNCCC=C1c2ccccc2CCc2ccccc21 [NORTRIPTYLINE HYDROCHLORIDE]
Assigned Class: 0.0

Molecule: CCSc1nc(N2CCCC2)s[s+]1.[O-][Cl+3]([O-])([O-])[O-]
Assigned Class: 0.0

Molecule: N#Cc1ncn(-c2ccccc2)c1N
Assigned Class: 0.0

Ask: What was the test verdict on COc1cc(/C=C2\C[C@H]3[C@@H]4CCC5=CC(=O)CC[C@]5(C)[C@H]4CC[C@]3(C)C2=O)cc(OC)c1OC ?
Result: 0.0

Ask: What was the test verdict on COc1ccc(C2SCC(=O)N2NC(=O)C(C)Oc2ccccc2C)cc1 (centres undefined) ?
Result: 0.0

Ask: What was the test verdict on COc1ccc2nc3cc(Cl)ccc3c(NCCNC(=O)Cn3c(=O)n(C)c(=O)c4c3nc3c(c(=O)n(C)c(=O)n3C)[n+]4[O-])c2c1 ?
Result: 0.0

Ask: What was the test verdict on Cc1ccc(NC(=O)NC(=O)c2ccc([N+](=O)[O-])cc2[N+](=O)[O-])cc1Oc1ncc(Cl)cn1 ?
Result: 1.0
